meta.source: PubChem BioAssay (NCI)

# Tested on: OVCAR-4 ovarian
# assay.overview: NCI tumour cell line growth inhibition, 48 h
Assign TGI to each entry below.
State just the number; it will be interpreted in µM.

Tell us which TGI value is on record for COc1ccc2[nH]c(C(=O)N3CC(CCl)c4ccc(N)cc43)cc2c1 (stereo not given)
0.609

Could you please provide reported TGI for CC(=O)OC(Cc1cc(C=C(C(F)(F)F)C(F)(F)F)cc(C)n1)(C(F)(F)F)C(F)(F)F ? Thanks!
4.76

Please report TGI for the following compound: COc1ccc2c(c1)[nH]c(=O)c1c3cc(C)c(C)cc3cn21
3.95

Specify reported TGI for the compound shown: Cc1ccc(OCC(=O)N2N=C(c3ccccc3)CC2(O)c2ccccc2)cc1 (stereo not given)
71.6
